- Method summary: LAP Dog PK study, SQ and IM injections (IV values given for reference)
- Design: species or system Beagle dogs
- Protocol conditions: dog, in vivo; IM, dose 2.5 mg/kg, Beagle dogs, n=3
Measurement name: Cmax (ng/mL)
Could you give me the number in ng/mL? Just the number is fine.

Task: # Cmax lookup, item `CC(C)C1=C2[C@H]3CC[C@@H]4[C@@]5(C)CC[C@H](OC(=O)CC(C)(C)C(=O)O)C(C)(C)[C@@H]5CC[C@@]4(C)[C@]3(C)CC[C@@]2([C@@H](O)CN(CCN(C)C)Cc2ccc(Cl)cc2)CC1=O`
Output: 59.3

---

- Method summary: LAP Rat PK study, SQ and IM injections (IV values given for reference)
- Protocol conditions: in vivo, sc, SQ, dose 20 mg/kg, Sprague-Dawley rats, t = 57 days
Measurement name: AUC(0-t) (ng·h/mL)
Could you give me the number in ng·h/mL? Just the number is fine.

Task: # AUC(0-t) lookup, item CC(C)C1=C2[C@H]3CC[C@@H]4[C@@]5(C)CC[C@H](OC(=O)CC(C)(C)C(=O)O)C(C)(C)[C@@H]5CC[C@@]4(C)[C@]3(C)CC[C@@]2([C@@H](O)CN(CCN(C)C)Cc2ccc(Cl)cc2)CC1=O [compound of Formula I]
Output: 23900
